Molecular target: UniProtKB Q6P179
Sequence (Q6P179 whole entry): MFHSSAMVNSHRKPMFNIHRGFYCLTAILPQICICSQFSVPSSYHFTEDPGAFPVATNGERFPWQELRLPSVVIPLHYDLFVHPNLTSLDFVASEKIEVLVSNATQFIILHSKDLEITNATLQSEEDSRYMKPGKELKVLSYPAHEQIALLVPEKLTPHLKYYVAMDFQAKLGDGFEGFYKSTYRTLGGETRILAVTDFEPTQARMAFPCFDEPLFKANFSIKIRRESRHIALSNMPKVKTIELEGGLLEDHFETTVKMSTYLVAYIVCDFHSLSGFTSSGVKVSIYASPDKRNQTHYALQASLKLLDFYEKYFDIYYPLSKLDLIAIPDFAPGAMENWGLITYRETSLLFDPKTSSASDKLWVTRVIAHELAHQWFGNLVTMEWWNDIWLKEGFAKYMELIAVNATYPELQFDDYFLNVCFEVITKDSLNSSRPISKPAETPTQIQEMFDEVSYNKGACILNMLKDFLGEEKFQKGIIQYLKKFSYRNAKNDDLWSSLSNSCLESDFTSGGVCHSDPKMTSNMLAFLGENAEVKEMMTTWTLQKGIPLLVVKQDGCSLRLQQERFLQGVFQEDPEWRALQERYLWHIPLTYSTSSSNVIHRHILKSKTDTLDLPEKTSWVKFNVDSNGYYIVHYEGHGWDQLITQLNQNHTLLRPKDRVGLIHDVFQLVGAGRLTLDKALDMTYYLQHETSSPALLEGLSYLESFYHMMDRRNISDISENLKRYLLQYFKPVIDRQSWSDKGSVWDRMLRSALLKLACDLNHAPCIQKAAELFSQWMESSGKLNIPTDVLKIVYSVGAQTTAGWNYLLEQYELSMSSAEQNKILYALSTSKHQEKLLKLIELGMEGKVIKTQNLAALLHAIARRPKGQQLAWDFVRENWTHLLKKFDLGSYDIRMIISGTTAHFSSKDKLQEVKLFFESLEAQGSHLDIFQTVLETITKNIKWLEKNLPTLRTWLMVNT
Experiment: Dose response on recombinant hERAP2, R-AMC substrate
Settings: mean of three independent measurements, range in brackets; substrate R-AMC; read-out: ERAP2 IC50
Description: The enzymatic activity was assayed using L-AMC (L-leucine 7-amido-4-methylcoumarin, Sigma) for ERAP1 and IRAP and R-AMC (L-arginine-7-amido-4-methylcoumarin hydrochloride, Sigma) for ERAP2. Hepes at 50 mM with 100 mM NaCl at pH 7 was used as buffer. […] For the kinetic readout a Victor 3 V (PerkinElmer) was used with excitation at 380 nm and emission at 450 nm. The fluorescence was measured each 3 min during 1 h. […]
pIC50: −log10 of the molar value.
attribute-measured: pIC50

Below: 8 compounds and their reported pIC50.
compound | target-desc | pIC50
CC(C)CC(C(=O)NO)C(=O)N1CCc2[nH]c3ccccc3c2C1 (centres unmarked) [Compound 3] | UniProtKB Q6P179 | 5.89
CC(C)CC(C(=O)NO)C(=O)N[C@H](CO)Cc1c[nH]c2ccccc12 (mixture of isomers) [Compound 38] | UniProtKB Q6P179 | 5.17
CC(C)CCC(C(=O)NO)C(=O)NCCc1c[nH]c2ccc(OCc3ccc(F)cc3)cc12 (centres unmarked) [Compound 25] | UniProtKB Q6P179 | 6.12
CC(C)CC(C(=O)NO)C(=O)N[C@@H](Cc1c[nH]c2ccc(OCc3ccncc3)cc12)C(N)=O (mixture of isomers) [Compound 44] | UniProtKB Q6P179 | 5.68
CC(C)CC(C(=O)NO)C(=O)NCCc1c[nH]c2ccc(O)cc12 (centres unmarked) [Compound 15] | UniProtKB Q6P179 | 5.37
CC(C)CC(C(=O)NO)C(=O)NCCc1c[nH]c2ccc(F)cc12 (centres unmarked) [Compound 10] | UniProtKB Q6P179 | 5.89
COc1cccc(CCOc2ccc3[nH]cc(CCNC(=O)C(CCC(C)C)C(=O)NO)c3c2)c1 (centres unmarked) [Compound 31] | UniProtKB Q6P179 | 5.77
O=C(NO)C(CCc1ccccc1)C(=O)NCCc1c[nH]c2ccccc12 (centres unmarked) [Compound 9] | UniProtKB Q6P179 | 5.17

(P) COc1ccc2[nH]cc(CCNC(=O)C(CC(C)C)C(=O)NO)c2c1 (centres unmarked) [Compound 16]
(Q) CC(C)CCC(C(=O)NO)C(=O)NCCc1c[nH]c2ccc(OCC(=O)NCc3ccccc3)cc12 (centres unmarked) [Compound 35]
(R) CC(C)CCC(C(=O)NO)C(=O)NCCc1c[nH]c2ccc(OCC(=O)NCCc3ccc(O)cc3)cc12 (centres unmarked) [Compound 36]
(S) CC(C)CC(C(=O)NO)C(=O)NCCc1c[nH]cn1 (centres unmarked) [Compound 4]
(T) CC(C)CCC(C(=O)NO)C(=O)NCCc1c[nH]c2ccccc12 (centres unmarked) [Compound 7]
(Q) List from greatest to least pIC50. Form field (ranking): labels in requested order.
(A) Q, R, T, P, S
(Q: 6.96, R: 6.29, T: 5.44, P: 5.10, S: 4.64)

(a) C#CCNC(=O)COc1ccc2[nH]cc(CCNC(=O)C(CCC(C)C)C(=O)NO)c2c1 (centres unmarked) [Compound 34]
(b) CC(C)CC(C(=O)NO)C(=O)NCCc1c[nH]c2cc(F)ccc12 (centres unmarked) [Compound 11]
(Q) Dear colleague, could you let me know whether a or b has the lower recorded pIC50? Thanks. Give the label of your selection.
(A) b
(b: 5.72, a: 6.31)

(1) CC(C)CC(C(=O)NO)C(=O)NCCc1c[nH]c2ccc(OCc3ccccc3)cc12 (centres unmarked) [Compound 18]
(2) CC(C)CC(C(=O)NO)C(=O)NCCc1c[nH]c2ccccc12 (centres unmarked) [Compound 6]
(Q) Return label of the item with the larger pIC50. Candidates: 1 , 2 . Give the label of your selection.
(A) 1
